target: Amyloid-beta precursor protein (Homo sapiens) (UniProt P05067); experiment: Modulation of amyloid beta (1 to 42) (unknown origin) self aggregation assessed as increase in fluorescence intensity at 0.03 to 0.1 uM incubated for 24 hrs by Thioflavin T fluorescence assay; details: filed as modulator, dose 0.03-0.1 µM
Sequence (P05067 whole entry): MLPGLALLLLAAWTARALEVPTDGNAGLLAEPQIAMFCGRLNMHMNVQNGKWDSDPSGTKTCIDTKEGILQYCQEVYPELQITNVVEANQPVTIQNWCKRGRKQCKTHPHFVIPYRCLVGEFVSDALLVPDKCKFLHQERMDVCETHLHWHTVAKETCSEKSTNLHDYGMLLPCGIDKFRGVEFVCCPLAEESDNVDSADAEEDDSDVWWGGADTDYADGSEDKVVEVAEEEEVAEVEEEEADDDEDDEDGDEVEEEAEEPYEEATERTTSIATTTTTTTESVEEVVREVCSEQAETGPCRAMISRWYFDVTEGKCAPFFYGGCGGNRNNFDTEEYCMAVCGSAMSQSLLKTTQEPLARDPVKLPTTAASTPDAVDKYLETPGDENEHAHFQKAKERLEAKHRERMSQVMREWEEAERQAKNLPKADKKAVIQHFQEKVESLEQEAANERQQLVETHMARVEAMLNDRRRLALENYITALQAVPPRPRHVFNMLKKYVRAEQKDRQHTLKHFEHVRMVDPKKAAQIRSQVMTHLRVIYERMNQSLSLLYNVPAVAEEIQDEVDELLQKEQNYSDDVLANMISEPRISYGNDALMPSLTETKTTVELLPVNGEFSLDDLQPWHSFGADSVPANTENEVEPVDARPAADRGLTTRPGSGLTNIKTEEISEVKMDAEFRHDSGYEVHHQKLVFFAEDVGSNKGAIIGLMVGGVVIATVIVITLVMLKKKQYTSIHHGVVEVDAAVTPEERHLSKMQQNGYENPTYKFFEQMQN
The source made the active and inactive calls. The calls are words filed in the database; no cut-off is given here.
observationType: Activity

- compound: "CCOP(=O)(OCC)C(Nc1ccccc1OC)c1ccc(OCc2nc3ccccc3c(=O)n2-c2ccc(F)cc2)c(OC)c1 (centres undefined)"
  observed: "Active"
- compound: "CCOP(=O)(OCC)C(Nc1cccc(Cl)c1Cl)c1ccc(OCc2nc3ccccc3c(=O)n2-c2ccc(F)cc2)c(OC)c1 (centres undefined)"
  observed: "Active"
- compound: "CCOP(=O)(OCC)C(Nc1ccc(C(=O)O)cc1)c1ccc(OCc2nc3ccccc3c(=O)n2-c2ccc(F)cc2)c(OC)c1 (centres undefined)"
  observed: "Active"

meta.source: ChEMBL document CHEMBL5360568
